# test-method-notes: Oral bioavailability in mouse at 6.25 mg/kg
# Type: ADME, organism-based
# condition-set: in vivo
endpoint: bioavailability (%)

smiles-str | endpoint | unit-of-measure | recorded-number
COc1nc(-c2ccc(Cl)cc2)ccc1[C@@H](c1ccccc1)[C@@](O)(CCN(C)C)c1cccc2ccccc12 | bioavailability | % | 40.7

###

# test-method-notes: Apparent permeability across basolateral side to apical side in dog MDCK cells
# Assay type: ADME, cell-based, Canis lupus familiaris

smiles-str | Papp B→A, ×10⁻⁶ cm/s
COc1nc(-c2ccc(Cl)cc2)ccc1[C@@H](c1ccccc1)[C@@](O)(CCN(C)C)c1cccc2ccccc12 | 0.11
COc1nc2ccc(Br)cc2cc1[C@@H](c1ccccc1)[C@@](O)(CCN(C)C)c1cccc2ccccc12 | 0.09

###

# test-method-notes: Volume of distribution at steady state in Sprague-Dawley rat at 1 mg/kg,iv
# Format: ADME, organism-based
# condition-set: in vivo, read-out: Vdss

smiles-str | Vd
COc1nc(-c2ccc(Cl)cc2)ccc1[C@@H](c1ccccc1)[C@@](O)(CCN(C)C)c1cccc2ccccc12 | 9.2 L/kg

###

Recorded IC50 values for a group of compounds are listed next.
# study-target: UniProtKB P05177
# Sequence (P05177 whole entry): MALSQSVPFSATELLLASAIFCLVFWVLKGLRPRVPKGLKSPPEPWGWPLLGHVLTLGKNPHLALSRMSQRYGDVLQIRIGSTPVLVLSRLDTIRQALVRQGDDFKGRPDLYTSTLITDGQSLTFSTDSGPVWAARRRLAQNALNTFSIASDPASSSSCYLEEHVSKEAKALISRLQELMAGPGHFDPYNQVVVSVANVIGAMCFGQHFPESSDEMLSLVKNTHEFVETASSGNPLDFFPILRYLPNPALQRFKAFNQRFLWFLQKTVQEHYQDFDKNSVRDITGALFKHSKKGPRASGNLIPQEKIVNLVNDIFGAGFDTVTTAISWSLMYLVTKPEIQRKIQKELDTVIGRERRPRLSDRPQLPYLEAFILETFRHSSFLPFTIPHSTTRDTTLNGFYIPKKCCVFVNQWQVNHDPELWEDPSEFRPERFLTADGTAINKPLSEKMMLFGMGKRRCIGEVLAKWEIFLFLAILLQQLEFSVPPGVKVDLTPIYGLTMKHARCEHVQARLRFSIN
endpoint: IC50

compound | endpoint | result
COc1nc(-c2ccc(Cl)cc2)ccc1[C@@H](c1ccccc1)[C@@](O)(CCN(C)C)c1cccc2ccccc12 | IC50 | > 10 µM
COc1nc2ccc(Br)cc2cc1[C@@H](c1ccccc1)[C@@](O)(CCN(C)C)c1cccc2ccccc12 [BEDAQUILINE] | IC50 | > 10 µM

###

Recorded CC50 values for a group of compounds are listed next.
# test-method-notes: Cytotoxicity against human HeLa cells
# Assay type: toxicity, cell-based

smiles-str | CC50
COc1nc(-c2ccc(C(F)(F)F)cc2)ccc1[C@@H](c1ccccc1)[C@@](O)(CCN(C)C)c1cccc2ccccc12 | > 64 µg/mL
COc1nc(-c2cccc(F)c2)ccc1[C@@H](c1ccccc1)[C@@](O)(CCN(C)C)c1cccc2ccccc12 | 62.8 µg/mL
COc1ccc(-c2ccc([C@@H](c3ccccc3)[C@@](O)(CCN(C)C)c3cccc4ccccc34)c(OC)n2)cc1 | > 64 µg/mL
COc1nc(-c2ccc(Cl)cc2)ccc1[C@@H](c1ccccc1)[C@@](O)(CCN(C)C)c1cccc2ccccc12 | > 64 µg/mL
COc1ncc(-c2ccccc2)cc1[C@@H](c1ccccc1)[C@@](O)(CCN(C)C)c1cccc(F)c1F | 28.1 µg/mL

###

# study-target: Cytochrome P450 2C19 (Homo sapiens)
# Sequence (P33261 whole entry): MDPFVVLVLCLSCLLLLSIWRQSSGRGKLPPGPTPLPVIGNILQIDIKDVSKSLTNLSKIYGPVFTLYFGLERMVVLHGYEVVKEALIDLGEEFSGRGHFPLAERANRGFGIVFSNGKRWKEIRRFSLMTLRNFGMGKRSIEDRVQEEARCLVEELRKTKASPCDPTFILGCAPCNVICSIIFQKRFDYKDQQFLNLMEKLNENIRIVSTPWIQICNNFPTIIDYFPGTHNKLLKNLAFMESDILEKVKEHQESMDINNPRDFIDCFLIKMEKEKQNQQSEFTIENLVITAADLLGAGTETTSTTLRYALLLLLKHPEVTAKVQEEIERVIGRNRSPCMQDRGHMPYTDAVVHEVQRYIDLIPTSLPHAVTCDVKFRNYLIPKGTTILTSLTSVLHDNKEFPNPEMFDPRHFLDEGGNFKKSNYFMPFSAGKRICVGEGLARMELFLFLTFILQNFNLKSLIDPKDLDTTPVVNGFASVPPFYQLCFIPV
pIC50: −log10 of the molar value.
endpoint: pIC50

smiles-str | study-target | endpoint | result
COc1nc2ccc(Br)cc2cc1[C@@H](c1ccccc1)[C@@](O)(CCN(C)C)c1cccc2ccccc12 | Cytochrome P450 2C19 (Homo sapiens) | pIC50 | < 5.00
COc1nc(-c2ccc(Cl)cc2)ccc1[C@@H](c1ccccc1)[C@@](O)(CCN(C)C)c1cccc2ccccc12 | Cytochrome P450 2C19 (Homo sapiens) | pIC50 | < 5.00

###

# test-method-notes: Oral bioavailability in Beagle dog at 2 mg/kg
# Type: ADME, organism-based, Canis lupus familiaris
# condition-set: in vivo
endpoint: bioavailability (%)

smiles-str | unit-of-measure | recorded-number
COc1nc(-c2ccc(Cl)cc2)ccc1[C@@H](c1ccccc1)[C@@](O)(CCN(C)C)c1cccc2ccccc12 | % | 58.9

###

# test-method-notes: Volume of distribution at steady state in mouse at 1 mg/kg,iv
# Assay type: ADME, organism-based
# condition-set: in vivo, read-out: Vdss

smiles-str | unit-of-measure | Vd
COc1nc(-c2ccc(Cl)cc2)ccc1[C@@H](c1ccccc1)[C@@](O)(CCN(C)C)c1cccc2ccccc12 | L/kg | 10.4

###

# test-method-notes: Half life in mouse at 1 mg/kg,iv
# Type: ADME, organism-based
# condition-set: in vivo
endpoint: half-life (h)

smiles-str | endpoint | unit-of-measure | recorded-number
COc1nc(-c2ccc(Cl)cc2)ccc1[C@@H](c1ccccc1)[C@@](O)(CCN(C)C)c1cccc2ccccc12 | half-life | h | 46.3

The origin of these recorded values is ChEMBL document CHEMBL5113423.
